- Tested Target: T1, PUF4 RNA-binding domain (Saccharomyces cerevisiae, UniProt P25339 537-888)
- T1 sequence: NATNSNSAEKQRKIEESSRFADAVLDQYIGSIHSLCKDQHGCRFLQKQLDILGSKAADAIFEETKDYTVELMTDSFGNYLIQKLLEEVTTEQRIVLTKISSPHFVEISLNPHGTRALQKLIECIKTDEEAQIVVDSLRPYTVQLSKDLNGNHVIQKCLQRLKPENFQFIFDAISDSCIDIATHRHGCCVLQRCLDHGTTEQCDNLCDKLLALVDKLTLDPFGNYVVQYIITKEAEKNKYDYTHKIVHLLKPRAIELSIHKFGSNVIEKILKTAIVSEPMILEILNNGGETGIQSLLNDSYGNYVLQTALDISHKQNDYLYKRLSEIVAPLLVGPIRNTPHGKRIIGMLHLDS
- Assay Remarks: Mg; RNA-MaP; 20 mM Na-HEPES pH 7.4, 30 mM KOAc, 0.75 mM MgCl2, 0.1% Tween-20, 5% glycerol, 0.1 mg/mL BSA, 2 mM DTT; 25 C; 0.0125-409.6 nM protein
- Assay Conditions: tags: N-His6-TEV cleaved; C-SNAP kept, Cy3B-labelled; label: tethered on chip by stalled RNA polymerase
pKd: −log10 of the molar value.
Observed Property: pKd

Qu. Which value of pKd has been reported for Id_ii_S2_P5E.4_K5.3_C5.2_[T-1A]_H5.3_A5.1_F5.1_T5.2_[T11A]_[A12T] (ssRNA) RNA: UUUGAUUAAUAUGAUAUCGUUCUUUCUCAACACUUAUUAAUUUCUUUCUCGAUAUCAUAUUAAUCUUU in the records?
Ans. < 5.64

Qu. Which value of pKd has been reported for Ic_S4_P5E.1_K5.1_C5.1_H5.1_A5.1_[T5C]_[A7C]_F5.1_[T8A]_[T9C]_[A10G]_T5.1 (ssRNA) RNA: UUUGACAACUGAUCGUUCUUUCUUGUACUCACGUUCUUUCUCGAUCAGUUGUCUUU in the records?
Ans. < 5.64

Qu. Which value of pKd has been reported for UCUCUUCUACACUUAUUACCUCUCUU (ssRNA) [Id_ii_S1_P5E.4_K5.3_C5.2_H5.3_A5.1_F5.1_T5.2_[T11C]_[A12C]] in the records?
Ans. < 5.64
